Quick reference: Ratio IC50 of the listed items.
- Tested on: HCT-116
- Assay Protocol: Selectivity index, ratio of IC50 for human PBMC cells to IC50 for human HCT116 cells
- Type: functional
Answer as a number with no unit attached.

1. CC1(C)OC2=C(C(=O)C(=O)c3ccccc32)C1n1cc(CNC2=C(Cl)C(=O)c3ccccc3C2=O)nn1 (centres undefined)
0.5
2. CC1(C)OC2=C(C(=O)C(=O)c3ccccc32)C1n1cc(CNC2=C(Br)C(=O)c3ccccc3C2=O)nn1 (centres undefined)
0.4
3. CC(C)c1ccc(/C=C/C(=O)c2ccc(NC3C4=C(OC3(C)C)c3ccccc3C(=O)C4=O)cc2)cc1 (centres undefined)
1.4

Now for a further compound.
Prompt line: State the recorded Ratio IC50 for this entry: Cc1ccc(/C=C/C(=O)c2ccc(NC3C4=C(OC3(C)C)c3ccccc3C(=O)C4=O)cc2)cc1 (centres undefined)
Response line: 4
